Each recorded value in this set is attributed to ChEMBL document CHEMBL3616420.

Emax: recorded values
- ASSAY TARGET: GABA-A receptor; alpha-1/beta-2/gamma-2 (Homo sapiens) (UniProt P14867+P47870+P18507)
- EXPERIMENT NOTES: Allosteric modulation of GABAAalpha1beta2gamma2s receptor (unknown origin) expressed in Xenopus laevis oocytes assessed as potentiation of GABA-induced chloride current by two-microelectrode voltage-clamp method relative to GABA
- Format: cell-based
METRIC NAME: Emax (%)

{"MOLECULAR STRING": "C=CCc1ccc(OCC)c(-c2cc(N)c(O)c(CC=C)c2)c1", "METRIC NAME": "Emax", "DISPLAY UNIT": "%", "NUMERIC RESULT": 91}
{"MOLECULAR STRING": "CCCc1cc(N)c(O)c(-c2ccc(OCC)c(CCC)c2)c1", "METRIC NAME": "Emax", "DISPLAY UNIT": "%", "NUMERIC RESULT": 93.7}
{"MOLECULAR STRING": "CCCc1ccc(OC)c(-c2cc(CCC)c(O)c(NC(C)=O)c2)c1", "METRIC NAME": "Emax", "DISPLAY UNIT": "%", "NUMERIC RESULT": 42.5}
{"MOLECULAR STRING": "C=CCc1cc(NC(C)=O)c(O)c(-c2ccc(OC)c(CC=C)c2)c1", "METRIC NAME": "Emax", "DISPLAY UNIT": "%", "NUMERIC RESULT": 142}
{"MOLECULAR STRING": "CCCc1ccc(OCC)c(-c2cc(N)c(O)c(CCC)c2)c1", "METRIC NAME": "Emax", "DISPLAY UNIT": "%", "NUMERIC RESULT": 118}
{"MOLECULAR STRING": "C=CCc1ccc(OC)c(-c2cc(N)c(O)c(CC=C)c2)c1", "METRIC NAME": "Emax", "DISPLAY UNIT": "%", "NUMERIC RESULT": 72}
{"MOLECULAR STRING": "CCCc1ccc(OC)c(-c2cc(N)c(O)c(CCC)c2)c1", "METRIC NAME": "Emax", "DISPLAY UNIT": "%", "NUMERIC RESULT": 108}
{"MOLECULAR STRING": "CCCc1cc(NC(C)=O)c(O)c(-c2ccc(OCC)c(CCC)c2)c1", "METRIC NAME": "Emax", "DISPLAY UNIT": "%", "NUMERIC RESULT": 123}
